Below, each entry is listed alongside its reported CC50.
PROTOCOL DETAILS: Cytotoxicity against human HuH7 cells
Type: cell-based, Huh-7

[
  {
    "MOLECULE": "[N-]=[N+]=N[C@]1(CO)O[C@@H](n2ccc(N)nc2=O)[C@H](O)[C@@H]1O",
    "REPORTED ENDPOINT": "CC50",
    "VALUE MEASURED": "> 100 µM"
  },
  {
    "MOLECULE": "CCC[C@H](NC(=O)[C@@H]1[C@H]2CCC[C@H]2CN1C(=O)[C@@H](NC(=O)[C@@H](NC(=O)c1cnccn1)C1CCCCC1)C(C)(C)C)C(=O)C(=O)NC1CC1",
    "REPORTED ENDPOINT": "CC50",
    "VALUE MEASURED": "26.7 µM"
  },
  {
    "MOLECULE": "C[C@@]1(O)[C@H](O)[C@@H](CO)O[C@H]1n1ccc(N)nc1=O",
    "REPORTED ENDPOINT": "CC50",
    "VALUE MEASURED": "> 100 µM"
  },
  {
    "MOLECULE": "C[C@@]1(F)[C@H](O)[C@@H](CO)O[C@H]1n1ccc(N)nc1=O",
    "REPORTED ENDPOINT": "CC50",
    "VALUE MEASURED": "> 100 µM"
  }
]

Here is another compound to look at.
Measured CC50, CNC(=O)c1c(-c2ccc(F)cc2)oc2cc(N(CCO)S(C)(=O)=O)c(C3CC3)cc12 : > 100 µM

All values here come from ChEMBL document CHEMBL1255315.
